- Assayed target: human ether-à-go-go-related gene (hERG) potassium channel (human, UniProt Q12809);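 note: peak tail current of the secondary pulse compared with the same well before compound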
- Sequence (Q12809 whole entry, looked up): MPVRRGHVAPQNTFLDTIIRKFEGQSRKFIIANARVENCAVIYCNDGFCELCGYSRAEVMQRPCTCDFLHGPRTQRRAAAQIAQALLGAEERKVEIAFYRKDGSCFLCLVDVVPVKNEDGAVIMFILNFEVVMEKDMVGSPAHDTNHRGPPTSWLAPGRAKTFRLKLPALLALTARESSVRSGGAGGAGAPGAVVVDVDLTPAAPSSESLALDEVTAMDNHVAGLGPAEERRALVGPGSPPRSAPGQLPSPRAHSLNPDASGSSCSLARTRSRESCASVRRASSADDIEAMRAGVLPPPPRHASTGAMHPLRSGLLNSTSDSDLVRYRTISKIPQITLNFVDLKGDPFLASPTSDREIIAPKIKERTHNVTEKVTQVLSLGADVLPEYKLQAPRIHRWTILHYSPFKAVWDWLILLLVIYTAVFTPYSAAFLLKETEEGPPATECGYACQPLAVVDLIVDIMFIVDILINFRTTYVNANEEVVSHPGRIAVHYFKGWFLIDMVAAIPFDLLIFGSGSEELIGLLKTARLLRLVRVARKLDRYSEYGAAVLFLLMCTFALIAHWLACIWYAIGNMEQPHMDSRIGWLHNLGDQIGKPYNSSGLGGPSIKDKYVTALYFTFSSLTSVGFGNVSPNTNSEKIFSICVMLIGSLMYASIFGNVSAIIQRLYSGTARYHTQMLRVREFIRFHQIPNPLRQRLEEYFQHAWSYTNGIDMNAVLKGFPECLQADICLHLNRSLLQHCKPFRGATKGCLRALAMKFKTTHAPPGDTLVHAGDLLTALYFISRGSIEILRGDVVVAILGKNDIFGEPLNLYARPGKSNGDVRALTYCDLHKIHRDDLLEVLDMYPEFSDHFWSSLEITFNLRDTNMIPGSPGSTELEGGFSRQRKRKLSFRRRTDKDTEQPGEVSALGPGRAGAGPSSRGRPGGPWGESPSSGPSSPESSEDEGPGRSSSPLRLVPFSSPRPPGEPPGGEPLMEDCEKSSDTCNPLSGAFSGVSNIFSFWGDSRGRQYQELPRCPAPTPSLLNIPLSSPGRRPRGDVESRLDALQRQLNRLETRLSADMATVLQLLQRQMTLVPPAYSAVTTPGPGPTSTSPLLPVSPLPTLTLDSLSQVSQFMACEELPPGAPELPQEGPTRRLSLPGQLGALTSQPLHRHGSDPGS
- Protocol notes: primary screen, population patch clamp on CHO cells stably expressing hERG; higher = less effect of the substance
Among all 310,000 compounds or so, about 14,000 (4.5%) showed an effect of 50% or more. Effects have a minus sign here. The sample as a whole holds a higher share of strong results than the screen did.
# maps each entry to its hERG current change (%, negative = inhibition) at 10uM
Report as a plain number; the unit % is understood.

Worked cases, hERG current change (%, negative = inhibition) at 10uM given:
# Compound, Assayed target, Unit, Recorded number
records = [
    ("CCC(=O)N1CCc2cc(S(=O)(=O)N3CCc4ccccc43)ccc21", "human ether-à-go-go-related gene (hERG) potassium channel (human, UniProt Q12809)", "%", 2.61),
    ("CC1CCCN(C(=O)CN2C(=O)C(C)Oc3ccccc32)C1 (centres unmarked)", "human ether-à-go-go-related gene (hERG) potassium channel (human, UniProt Q12809)", "%", 8.2),
    ("COC(=O)C1=C(C)N(CCCC(=O)O)C(=O)NC1c1cccc2ccccc12 (centres unmarked)", "human ether-à-go-go-related gene (hERG) potassium channel (human, UniProt Q12809)", "%", 5.92),
    ("CN(C)c1nc(-c2ccccc2)nc(-c2ccc(Cl)cc2)c1C#N", "human ether-à-go-go-related gene (hERG) potassium channel (human, UniProt Q12809)", "%", 8.49),
]

Give the value of hERG current change (%, negative = inhibition) at 10uM reported for the following: Cc1ccc(/C(N)=N/OC(=O)c2ccc3ccccc3c2)cc1 0.62
